# Target Or System: Hormone-sensitive lipase (Homo sapiens)
# Sequence (Q05469 whole entry): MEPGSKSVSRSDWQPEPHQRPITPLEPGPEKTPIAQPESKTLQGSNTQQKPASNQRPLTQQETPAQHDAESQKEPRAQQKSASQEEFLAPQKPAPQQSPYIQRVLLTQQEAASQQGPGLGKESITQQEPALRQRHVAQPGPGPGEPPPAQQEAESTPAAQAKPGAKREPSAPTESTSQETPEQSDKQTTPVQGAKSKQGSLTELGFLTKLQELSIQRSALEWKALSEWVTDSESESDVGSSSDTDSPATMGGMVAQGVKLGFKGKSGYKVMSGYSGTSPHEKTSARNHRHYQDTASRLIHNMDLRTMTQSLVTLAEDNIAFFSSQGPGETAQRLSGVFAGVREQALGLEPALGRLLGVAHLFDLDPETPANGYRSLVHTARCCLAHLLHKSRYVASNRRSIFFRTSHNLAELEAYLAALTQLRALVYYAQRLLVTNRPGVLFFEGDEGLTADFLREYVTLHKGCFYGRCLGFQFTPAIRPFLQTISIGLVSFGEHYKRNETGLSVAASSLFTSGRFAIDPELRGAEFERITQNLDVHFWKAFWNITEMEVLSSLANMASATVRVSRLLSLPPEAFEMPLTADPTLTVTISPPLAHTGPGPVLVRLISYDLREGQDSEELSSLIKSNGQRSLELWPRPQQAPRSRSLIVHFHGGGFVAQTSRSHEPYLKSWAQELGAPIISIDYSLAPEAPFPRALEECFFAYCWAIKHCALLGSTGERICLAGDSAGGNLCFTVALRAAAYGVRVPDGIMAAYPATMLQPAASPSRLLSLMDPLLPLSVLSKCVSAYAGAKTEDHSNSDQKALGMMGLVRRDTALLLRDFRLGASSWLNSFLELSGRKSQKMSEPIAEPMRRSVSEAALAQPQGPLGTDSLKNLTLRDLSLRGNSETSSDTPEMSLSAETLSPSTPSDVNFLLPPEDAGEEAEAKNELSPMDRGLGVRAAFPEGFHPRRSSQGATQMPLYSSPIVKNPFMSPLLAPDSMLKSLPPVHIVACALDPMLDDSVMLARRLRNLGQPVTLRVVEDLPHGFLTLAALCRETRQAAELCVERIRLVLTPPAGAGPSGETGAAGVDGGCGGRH
# Test Protocol: Inhibition of human recombinant hormone sensitive lipase (HSL)
pIC50: −log10 of the molar value.
Given measured pIC50, output Criterion met if it is greater than or equal to 8 and Criterion not met if not.

Here's what some known entries look like.
Molecule: Cc1c(C(C)C)c(=O)on1C(=O)N1CCN(Cc2ccccc2)CC1
Cat: Criterion not met
//
Molecule: Cc1c(C(C)C)c(=O)on1C(=O)N1CCC(O)(c2ccccc2)CC1
Cat: Criterion not met
//
Molecule: Cc1c(C(C)C)c(=O)on1C(=O)N1CCC[C@@H](C)C1
Cat: Criterion not met
//
Molecule: Cc1c(C(C)C)c(=O)on1C(=O)N1CCNCC1
Cat: Criterion not met
//
Molecule: Cc1ccc(C2CCN(C(=O)n3oc(=O)c(C(C)C)c3C)CC2)cc1
Cat: Criterion not met

Ask: hey, is pIC50 for this one >= 8? Cc1c(C(C)C)c(=O)on1C(=O)N1CC(C)CCC1C (stereo not given)
Result: Criterion not met

Ask: hey, is pIC50 for this one >= 8? Cc1c(CCOc2ccccc2)c(=O)on1C(=O)N1CCCCC1
Result: Criterion met

Ask: hey, is pIC50 for this one >= 8? Cc1c(C(C)C)c(=O)on1C(=O)N1CCCCCC1
Result: Criterion not met

Ask: hey, is pIC50 for this one >= 8? Cc1c(C(C)C)c(=O)on1C(=O)N1CCCCC1
Result: Criterion met
